Experiment: chemical genetic growth profiling, strain panel (AID 1159580);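 further: tested at 20 µM; growth read once vehicle control cultures reached saturation at 30 °C; 1 = growth at the plate median or of vehicle wells; lower values mean less growth of the strain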
Details: S. cerevisiae deletion strains, growth OD, locus YKL068W, active compounds read low
The campaign covered roughly 5,500 compounds. About 2,000 (36%) were called active. About 18% were inconclusive and are not listed. The list shows a part of the results.
Measured metric: normalized growth
Form field (numeric): enter value without unit.

Use these answered entries as a reference point.
>  <Smiles input>
O=c1ccc2cc(O[C@@H]3O[C@H](CO)[C@@H](O)[C@H](O)[C@H]3O)c(O)cc2o1

>  <Reported measurement>
1

$$$$
>  <Smiles input>
CC1(C)C=Cc2c(cc3occ(-c4ccc5c(c4)OCO5)c(=O)c3c2O)O1

>  <Reported measurement>
1.02

$$$$
>  <Smiles input>
COc1cc2c(cc1-c1coc3c4c(c(OC)cc3c1=O)OC(C)(C)C=C4)OCO2

>  <Reported measurement>
1

$$$$

Please turn your attention to the following entry.
Query (compound): "O=c1c(-c2ccc3c(c2)OCO3)coc2cc(O)ccc12" ; field requested: normalized growth
0.994

----------
Test: chemical genetic growth profiling, strain panel (AID 1159580)
Settings: S. cerevisiae deletion strains, growth OD, locus YIR030C, strain dcg1, active compounds read low
About 2,000 (36%) of roughly 5,500 compounds were called active. Roughly 18% stayed inconclusive and do not appear here. The list shows a part of the results.
Measured metric: normalized growth
Write no unit; give the number alone.

Need normalized growth of "O=C1c2ccc(O)c(O)c2C(=O)c2c(O)ccc(O)c21" , thanks.
0.988

----------
Assay: chemical genetic growth profiling, strain panel (AID 1159580)
Settings: S. cerevisiae deletion strains, growth OD, locus YJL092W, strain hpr5, active compounds read low
Out of some 5,500 compounds screened, about 2,000 (36%) were called active. About 18% were inconclusive and are not listed. The list shows a part of the results.
# normalized growth per record follows
Just the number, please, no unit attached.

Consider the compound "COc1cc(OC)c2c(=O)c(-c3ccc4c(c3)OCO4)coc2c1" and give its measured normalized growth.
0.978

Which normalized growth reading was recorded for the compound Cn1nnnc1SCC1=C(C(=O)O)N2C(=O)C(NC(=O)C(OC=O)c3ccccc3)C2SC1 (stereo unspecified) ?
0.993

Find the recorded normalized growth belonging to "N#C/C(=C\c1ccc(O)cc1)C(=O)O" and report it.
0.979

For the compound shown here, CCCC(=O)Nc1ncnc2c1ncn2C1O[C@@H]2COP(=O)(O)O[C@H]2[C@H]1OC(=O)CCC (stereo partly specified) , give the reported normalized growth.
0.985

// normalized growth lookup, key: CC(=O)O[C@@H]1CC2C(C)(C)[C@H](O)C[C@H](O)[C@]2(C)C2CC[C@@]3(C)C(=CC(=O)O[C@H]3c3ccoc3)[C@@]21C (stereo partly specified)
0.985

----------
Test: chemical genetic growth profiling, strain panel (AID 1159580);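 further: tested at 20 µM; growth read once vehicle control cultures reached saturation at 30 °C; 1 = growth at the plate median or of vehicle wells; lower values mean less growth of the strain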
Details: S. cerevisiae deletion strains, growth OD, locus YIR030C, strain dcg1, active compounds read low
Screen size: about 5,500 compounds; about 2,000 (36%) were called active. Another 18% or so got no clear call; they are omitted. The list shows a part of the results.
Item-by-item account of normalized growth

>  <Compound>
COc1cc(OC)c2c(c1Cl)OC1(C2=O)C(O)=CC(=O)CC1C (stereo unspecified)

>  <normalized growth>
1.01 (inactive)

$$$$
>  <Compound>
CCCCCN=C(N)N/N=C\c1c[nH]c2ccc(OC)cc12

>  <normalized growth>
1.02 (inactive)

$$$$

# query: normalized growth of entry CC(=O)O[C@@H]1CC2C(C)(C)C(=O)[C@@H]3O[C@@H]3[C@]2(C)C2CC[C@]3(C)C(=CC(=O)O[C@H]3c3ccoc3)[C@@]21C (stereo partly specified)
0.99 (inactive)

Please look up its normalized growth: "N#Cc1ccc2c(c1)N(CCCN1CCC(O)CC1)c1ccccc1S2"
1.03 (inactive)

Request the reported normalized growth associated with "NCCS"
1.03 (inactive)

Need normalized growth, item "c1ccc2c(c1)[nH]c1cnccc12"
0.991 (inactive)

----------
Experiment: chemical genetic growth profiling, strain panel (AID 1159580);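 further: tested at 20 µM; growth read once vehicle control cultures reached saturation at 30 °C; 1 = growth at the plate median or of vehicle wells; lower values mean less growth of the strain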
Conditions: S. cerevisiae deletion strains, growth OD, locus YDR001C, strain nth1, active compounds read low
Out of some 5,500 compounds screened, about 2,000 (36%) were called active. Roughly 18% stayed inconclusive and do not appear here. The list shows a part of the results.
Threshold-based label: normalized growth under 1 gives Fulfilled, normalized growth not under 1 gives Not fulfilled.

Reference set (7 entries):
>  <Compound>
Cc1ncc([N+](=O)[O-])n1CCO

>  <Answer label>
Fulfilled

$$$$
>  <Compound>
COc1cc(OC)c(C(C)=O)c(O)c1C

>  <Answer label>
Fulfilled

$$$$
>  <Compound>
CCCc1nc(C(C)(C)O)c(C(=O)OCc2oc(=O)oc2C)n1Cc1ccc(-c2ccccc2-c2nn[nH]n2)cc1

>  <Answer label>
Fulfilled

$$$$
>  <Compound>
O=C1c2ccccc2C(=O)c2c(O)c(O)cc(O)c21

>  <Answer label>
Fulfilled

$$$$
>  <Compound>
CCOc1nc2cccc(C(=O)OC(C)OC(=O)OC3CCCCC3)c2n1Cc1ccc(-c2ccccc2-c2nn[nH]n2)cc1 (stereo unspecified)

>  <Answer label>
Not fulfilled

$$$$
>  <Compound>
COc1cc2c(cc1-c1coc3c4c(c(OC)cc3c1=O)OC(C)(C)C=C4)OCO2

>  <Answer label>
Not fulfilled

$$$$
>  <Compound>
O=C1c2ccc(O)c(O)c2C(=O)c2c(O)ccc(O)c21

>  <Answer label>
Fulfilled

$$$$

Switching to the query record.
Field: below-cutoff. Rule: recorded normalized growth strictly less than 1. Subject: "Fc1ccc(C(c2ccc(F)cc2)N2CCN(C/C=C/c3ccccc3)CC2)cc1"
Fulfilled

----------
Experiment: chemical genetic growth profiling, strain panel (AID 1159580);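 further: tested at 20 µM; growth read once vehicle control cultures reached saturation at 30 °C; 1 = growth at the plate median or of vehicle wells; lower values mean less growth of the strain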
Settings: S. cerevisiae deletion strains, growth OD, locus YHR027C, strain rpn1, active compounds read low
In all, about 5,500 compounds went through this assay and about 2,000 (36%) were called active. About 18% were inconclusive and are not listed. The list shows a part of the results.
Measured metric: normalized growth
Just the number.

>  <Molecule>
N#Cc1ccc2c(c1)N(CCCN1CCC(O)CC1)c1ccccc1S2

>  <Measured metric>
normalized growth

>  <Reported measurement>
0.997

$$$$
>  <Molecule>
OCCN1CCN(CCCN2c3ccccc3Sc3ccc(Cl)cc32)CC1

>  <Measured metric>
normalized growth

>  <Reported measurement>
0.988

$$$$
>  <Molecule>
O=C(CCCN1CC=C(n2c(=O)[nH]c3ccccc32)CC1)c1ccc(F)cc1

>  <Measured metric>
normalized growth

>  <Reported measurement>
0.977

$$$$
>  <Molecule>
O=c1ccc2ccc(O)c(O)c2o1

>  <Measured metric>
normalized growth

>  <Reported measurement>
1

$$$$
>  <Molecule>
Cc1cc(C)nc(NS(=O)(=O)c2ccc(N)cc2)n1

>  <Measured metric>
normalized growth

>  <Reported measurement>
0.973

$$$$

So what's the measured normalized growth for this one? "COc1c(O)cc(O)cc1O"
0.988

What does the data say about its normalized growth? Entry: CSCCC(NC=O)C(=O)NC(CC(C)C)C(=O)NC(Cc1ccccc1)C(=O)O (centres undefined)
0.986

Entry under review: C[C@]12C=CC(=O)C=C1CCC1C2CC[C@]2(C)C(=O)CCC12 (some centres undefined) . Reported normalized growth?
0.99

Which normalized growth is listed for "COP(=S)(OC)SCn1nnc2ccccc2c1=O" ?
1.02

Would you mind telling me what normalized growth value was observed for C[C@]12C=CC(=O)C=C1CCC1C2C(=O)C[C@@]2(C)C1CC[C@]2(O)C(=O)CO (some centres undefined) ?
1

Using the record for "CC(C)=CCOc1c2occc2cc2ccc(=O)oc12" , report its normalized growth.
0.954

If you can, please state the reported normalized growth value of "COc1cc(O)c(C(C)=O)c(OC)c1" .
1.01

Which value of normalized growth has been reported for "COc1cc2ccc(=O)oc2cc1O" in the records?
0.968

Requested read-out: normalized growth. Entry: "COc1cc(OC)c(C(C)=O)c(O)c1C"
0.969

So what does the record say about normalized growth for CCOC(=O)C1=C(C)NC(C)=C(C(=O)OC)C1c1cccc([N+](=O)[O-])c1 (centres undefined) ?
1.01

Need normalized growth, item "CCNc1nc(Cl)nc(NC(C)C)n1"
1

Dear colleague, I am looking for the recorded normalized growth of the following molecule: "CNC(=O)CSP(=S)(OC)OC"
1.02

Suppose we examine the molecule "CC(C)=CCC/C(C)=C/COc1ccc2ccc(=O)oc2c1" ; what normalized growth value has been reported?
0.998

Which value of normalized growth has been reported for CCOc1nc2cccc(C(=O)OC(C)OC(=O)OC3CCCCC3)c2n1Cc1ccc(-c2ccccc2-c2nn[nH]n2)cc1 (centres undefined) in the records?
1.01

For the molecule "COc1c2occc2cc2ccc(=O)oc12" , what normalized growth is on record?
0.956

Record request: normalized growth value, item "O=C1c2ccccc2C(=O)c2c(O)c(O)cc(O)c21"
0.268

Consider the molecule "CN(C)c1nc(N(C)C)nc(N(C)C)n1" and give its measured normalized growth.
0.959

State the recorded normalized growth for this entry: "COc1ccc2c(=O)c(-c3cc4c(cc3OC)OCO4)coc2c1"
1.02

Consider the molecule "O=C(/C=C/C(=O)Oc1ccccc1C(=O)O)Oc1ccccc1C(=O)O" and give its measured normalized growth.
0.979

Given the entry C=C1CC2C(CCC3(C)C(=O)CCC23)C2(C)C=CC(=O)C=C12 (centres undefined) , report its measured normalized growth.
0.93
